Provide the recorded Ki for the entries that follow.

Noted Ki for N#Cc1nc(CCCNCC(=O)O)cc(-c2cccc(C(F)(F)F)c2)n1 , tested on Voltage-gated inwardly rectifying potassium channel KCNH2 (Homo sapiens, UniProt Q12809): > 10 µM

Noted Ki for N#Cc1nc(CCCNC2(C(N)=O)CCOCC2)cc(-c2cccc(C(F)(F)F)c2)n1 , tested on Voltage-gated inwardly rectifying potassium channel KCNH2 (Homo sapiens, UniProt Q12809): > 10 µM

Noted Ki for N#Cc1nc(CCCN2CCOC[C@H]2C(N)=O)cc(-c2cccc(C(F)(F)F)c2)n1 , tested on Voltage-gated inwardly rectifying potassium channel KCNH2 (Homo sapiens, UniProt Q12809): > 10 µM

Noted Ki for N#Cc1nc(CCC(=O)O)cc(-c2cccc(C(F)(F)F)c2)n1 , tested on Voltage-gated inwardly rectifying potassium channel KCNH2 (Homo sapiens, UniProt Q12809): > 10 µM

Noted Ki for CCCc1cc(-c2cc(C(=O)N(C)C)cc(C(F)(F)F)c2)nc(C#N)n1 , tested on Voltage-gated inwardly rectifying potassium channel KCNH2 (Homo sapiens, UniProt Q12809): > 10 µM

Noted Ki for N#Cc1nc(CCCNCc2nnn[nH]2)cc(-c2cccc(C(F)(F)F)c2)n1 , tested on Voltage-gated inwardly rectifying potassium channel KCNH2 (Homo sapiens, UniProt Q12809): > 10 µM

---

- study.system: Cathepsin K (Homo sapiens, UniProt P43235)
- Sequence (P43235 whole entry): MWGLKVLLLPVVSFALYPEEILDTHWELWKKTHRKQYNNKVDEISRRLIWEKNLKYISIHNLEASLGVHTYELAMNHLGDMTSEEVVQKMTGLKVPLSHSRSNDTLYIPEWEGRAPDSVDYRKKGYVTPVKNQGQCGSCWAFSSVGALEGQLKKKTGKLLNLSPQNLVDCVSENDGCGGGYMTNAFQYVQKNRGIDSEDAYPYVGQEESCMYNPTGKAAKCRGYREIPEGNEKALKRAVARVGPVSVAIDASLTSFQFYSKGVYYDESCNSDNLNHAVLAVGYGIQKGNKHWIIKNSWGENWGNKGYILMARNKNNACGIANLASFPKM
- assay.name: Inhibition of human recombinant cathepsin K using Z-Phe-Arg-MCA substrate by fluorimetric assay
Provide the recorded IC50 for the entries that follow.
All answers are understood in nM, so give the number only.

Per the records, this compound ( N#Cc1nc(CCCNCc2nnn[nH]2)cc(-c2cccc(C(F)(F)F)c2)n1 ) has IC50 equal to 11

Per the records, this compound ( N#Cc1nc(CCCN2CCOCC2)cc(-c2cccc(C(F)(F)F)c2)n1 ) has IC50 equal to 9

Per the records, this compound ( CNCCCc1cc(-c2cccc(C(F)(F)F)c2)nc(C#N)n1 ) has IC50 equal to 6

Per the records, this compound ( CN1CCN(CCCc2cc(-c3cccc(C(F)(F)F)c3)nc(C#N)n2)CC1 ) has IC50 equal to 10

Hey, just so you know, these numbers are from ChEMBL document CHEMBL1268809.
